Below, each of the compounds is paired with its reported cell viability value.
Tested on: U2OS
Experiment: cell viability relative to DMSO; higher = less toxic
Conditions: 72 h; 1000 nM
Your answer should be a plain number; it is taken to be in %.

Solved cases below.
CN1CCN(c2c(F)cc3c(=O)c(C(=O)O)cn4c3c2SCC4)CC1 = 104
CNC(=O)c1ccc2c(c1)S(=O)(=O)c1ccccc1C2=O [BW-616U] = 99.4
O=C(C(c1ccccc1)c1ccccc1)N1CCN(CC(O)COc2cccc3ncccc23)CC1 (centres undefined) = 102

Tell us which cell viability value is on record for O=C1NCC2(CCN(CCc3ccccc3)CC2)O1 [fenspiride]
99.2
